Quick list: soluble fraction (log2) per entry.
- procedureSummary: soluble fraction after stress (log2 fold change); higher = more stays soluble; pooled small domains, quantitative proteomics
- runConditions: stress: 50 degC
measuredParameter: soluble fraction (log2)

>>> result("HMAARLMRALIPYAQGGLLAKLHEDGQVLSEEYTGEGIEVKALADEQLFGRLTVQLGEQAVSWQD")
0.16
>>> result("HMDQFMLQSAWLRAVQHVMKHTDDVGTQFAEEARRMHYGEADERPIRGQATSDEARALHDEGIEVMALPI")
-0.303
>>> result("HMKSIEVPNLINMTLRKAKIELIDNEFNLDTVIYEYNPNIREGRVSLQIPESGTILKSGSNISIHISKGIP")
-1.53
>>> result("HMKTAWDELNEVIEAYRGQESALIEVLHKAQEIMGYLPRDVQEAIAEGLHVPLNKVYGVVSFYHHFSV")
0.178
>>> result("HMGFAPEAAREEVAQLIGQRGRAVTVLRPSGQVEIAGRRFEATVEVGAVDAGDTIVVRGQTAFALLVEKAD")
0.0301
>>> result("HMRESRLFQILYQLLTKKKVTAANLAKQFEVSVRTIYRDIDALSSSGIPIYASQGKNGGIQLDEDF")
-1.11
>>> result("HMISESLLDEIPGLGETRRNSLLREFGSVAMIRKASAEEIASRVRGIGAEFAAAIHDFLQTH")
-0.0611
>>> result("HMGRELDLNQRVYDFIHDIADEVRTDEGTFSANQMMERFLFPGDLQSVPIGRLSGGERRRLYLLSVLMVKI")
0.117
>>> result("HMDAINYEDFQLLIKQRGSFKVAFEDIMFSTKVAIEKKEDFYDFVTKLIDNGFNNMAYNYLEGFQD")
-2.09
>>> result("HMKTSTGSAMYLTLDLAEKYAGQAFTLVHKKADGTFEYLYATADVDGKVKFGPVYELSPFMLVKGQL")
-0.291
>>> result("HMQEVILEKIQLTYLSADKLSKMAEQFSIPVKMYWVDENPMMLMVMGNESDIATFKKVLTQIDIPENKS")
0.0714
>>> result("HMNIDVAAEKQQLGPNADQIVKGTVTWMQGLVAKGIWSETDFEEGKIFTATADGINAINKIRRYYGEQT")
-0.0611
>>> result("HMNSQSGKGGVGYILETKYGLNLPPKMREAMGYAAKGVSDHLHKELHPDEIFDLFKKTFENVGQPYS")
-0.0272
>>> result("HMTIAFPSNDVDAVVGYFESRGFDRTASISTATVILQQAKIDGVKVFELIDTLQGMDKVQLSYIVTEILN")
0.03
>>> result("HMDTNEPFAQLQLRFTDPIQYDYEVIRPVVLFSQSVTDRSDETEMPRTTVREKARQFVTEGMLGLVDK")
-0.00748
>>> result("HMLEEIIDVKRFLVENVRGVSEKTALAILSEFGDKTMDVLRNSPNELYRIKGMSGKRIEVIKDAIANATAS")
-0.275
>>> result("HMKKATYDVMVREALVSFKKKGATLQSIKKKIKADYAIEANATAVKSAIQKGMEAGSIRKSYDLYFFMD")
-2.12
>>> result("HMTKASEELYFRLKEELGTGVIVEHKKYGEGVVTQLDDRLVHIMFQDDTLRMMDLKILANAGLLKVK")
0.189
>>> result("HMSGKMTVPNVVGKTETEAKSALSAKGFTNVRTETVDSTEAAGTVVKQSLDADSVQDPKTEIVLSVSNG")
0.608
>>> result("HMNNNIFVYPNPSINYINIDSDEEIWKLEIIQMSGEKINILPFSKRIDISFLSKGLYILNFNNYYIKFIK")
-0.187
>>> result("HMSVALSENIKTRRKALKMSQEYVAEQLDISRQAVAKWEAGKSEPTTENLVKLAALFEMSVSELVE")
-0.369
>>> result("HMPMHPEDLKKLVSIEMPFGKHKGRIIADLPGNYLNWFAREGFPPGEIGRLLQLMQEIDHNGLSDLLKPLR")
-0.3
>>> result("HMQDEREEIAVEDVVGMPLWQARKVIADQGFRVLDDGAGDIVIAQMPSGGGKLIEGGQVMLYTYTD")
0.186
>>> result("HMHLKDEHGLTPKQRAFADEYVITLNATVSYKKIYSVKRDSVASTNGSRLLGNANVKAYIDKRLEE")
-2.19
>>> result("HMDVFTAKTASHIQELREKLGQQAVFGRSDVQNALGLKATRSSALLREMAEHGIIEPVTGYGKGRYHFRS")
0.225
>>> result("HMRTDQYHYLAWKQVADELGIPFDEQVNERLRGVSRMASFDIILERYDGTMSDEEKIHWTDKKNEIYKSM")
-0.948
>>> result("HMTLKVQLSEISKMVSLSYIAKKYFNKSQSWLSQRINGNTIHNKPAKFTSEELATLQFALKDIGNILNSTV")
-2.8
>>> result("HMMNNKEIGTRIAVLRKGMGDSQAKLAERLDVSPQAVSKWETGQSLPDIGNLLKLSWLFRTSINHILEGS")
-1.37
>>> result("HMEIALNDKQILLFSNKLVHEPSFASKYSKVGESYDDFAIRISENLTIPDKVQEYLPYLEKVGFNI")
-0.00852
>>> result("HMTNVNSLIGKKAIVIQDIDNLKSTGQVKIGGEIWSAQSESNDIISKDTEVEIVKIDGVKLIVRLVPV")
0.1
